List of Dose of pentamethylenetetrazol, Myoclonia values.
test system: pentamethylenetetrazol convulsions; test: Anticonvulsant effect (pentamethylenetetrazol perfusion); assay type: in vivo, mice (female); settings: 5 mg/Kg i.p., 1 h before perfusion
REPORTED ENDPOINT: Dose of pentamethylenetetrazol, Myoclonia (mg/kg)

>>> quantitative_result("CCCN1C2Cc3ccccc3C1c1ccccc12 (stereo not shown)")
51.4
>>> quantitative_result("ClCCN1C2Cc3ccccc3C1c1ccccc12 (stereo not shown)")
51.5
>>> quantitative_result("CCN1C2Cc3ccccc3C1c1ccccc12 (stereo not shown)")
49.6
>>> quantitative_result("OCCN1C2Cc3ccccc3C1c1ccccc12 (stereo not shown)")
49.3
